test: Oral bioavailability in Sprague-Dawley rat at 15 mg/kg by LC-MS/MS analysis; type: ADME, organism-based; conditions: in vivo
Readout: bioavailability (%)

- Cc1ccccc1CN1C(=O)C2=C(CCN(Cc3ccccc3)C2)N2CCN=C12: 15.3

====

Listed here are compounds together with their documented IC50.
system: HCT-116; assay: cells; settings: Homo sapiens, HCT-116, 72 h
Description: Antiproliferative activity against human HCT-116 cells assessed as inhibition of cell growth measured after 72 hrs by CCK-8 method
Readout: IC50 (µM)

• CC1(C)CCC(NC(=O)C2CCCN(C(=O)c3cc(C(F)(F)F)cc(C(F)(F)F)c3)C2)CC1 (centres undefined) = 80.4
• O=C(Nc1ccc(Cl)cc1)C1=CCCN(Cc2ccccc2)C1 = 83.5
• CC(NC(=O)c1cc(C(F)(F)F)cc(C(F)(F)F)c1)C(=O)Nc1ccc(Cl)cc1 (centres undefined) = 58.4
• O=C(Nc1ccc(Oc2ccccc2)cc1)C1CCCN(C(=O)c2cc(C(F)(F)F)cc(C(F)(F)F)c2)C1 (centres undefined) = 40.1
• O=C(Nc1ccc(Cl)cc1)C1CCCN(C(=O)c2cc(C(F)(F)F)cc(C(F)(F)F)c2)C1 (centres undefined) = 16.7
• O=C(Nc1ccncc1)C1CCCN(C(=O)c2cc(C(F)(F)F)cc(C(F)(F)F)c2)C1 (centres undefined) = 59.7
• CC(ONC(=O)c1cc(C(F)(F)F)cc(C(F)(F)F)c1)C(=O)Nc1ccc(Cl)cc1 (centres undefined) = 20.5
• O=C(Nc1ccc(Cl)cc1)c1cccc(NC(=O)c2cc(C(F)(F)F)cc(C(F)(F)F)c2)c1 = 25.3
• O=C(NCc1ccc(C(F)(F)F)cc1)C1=CCCN(Cc2cccc(F)c2)C1 = 20.1
